target.or.test.system: EPHB2 (UniProt P29323)
Sequence (P29323 whole entry, looked up): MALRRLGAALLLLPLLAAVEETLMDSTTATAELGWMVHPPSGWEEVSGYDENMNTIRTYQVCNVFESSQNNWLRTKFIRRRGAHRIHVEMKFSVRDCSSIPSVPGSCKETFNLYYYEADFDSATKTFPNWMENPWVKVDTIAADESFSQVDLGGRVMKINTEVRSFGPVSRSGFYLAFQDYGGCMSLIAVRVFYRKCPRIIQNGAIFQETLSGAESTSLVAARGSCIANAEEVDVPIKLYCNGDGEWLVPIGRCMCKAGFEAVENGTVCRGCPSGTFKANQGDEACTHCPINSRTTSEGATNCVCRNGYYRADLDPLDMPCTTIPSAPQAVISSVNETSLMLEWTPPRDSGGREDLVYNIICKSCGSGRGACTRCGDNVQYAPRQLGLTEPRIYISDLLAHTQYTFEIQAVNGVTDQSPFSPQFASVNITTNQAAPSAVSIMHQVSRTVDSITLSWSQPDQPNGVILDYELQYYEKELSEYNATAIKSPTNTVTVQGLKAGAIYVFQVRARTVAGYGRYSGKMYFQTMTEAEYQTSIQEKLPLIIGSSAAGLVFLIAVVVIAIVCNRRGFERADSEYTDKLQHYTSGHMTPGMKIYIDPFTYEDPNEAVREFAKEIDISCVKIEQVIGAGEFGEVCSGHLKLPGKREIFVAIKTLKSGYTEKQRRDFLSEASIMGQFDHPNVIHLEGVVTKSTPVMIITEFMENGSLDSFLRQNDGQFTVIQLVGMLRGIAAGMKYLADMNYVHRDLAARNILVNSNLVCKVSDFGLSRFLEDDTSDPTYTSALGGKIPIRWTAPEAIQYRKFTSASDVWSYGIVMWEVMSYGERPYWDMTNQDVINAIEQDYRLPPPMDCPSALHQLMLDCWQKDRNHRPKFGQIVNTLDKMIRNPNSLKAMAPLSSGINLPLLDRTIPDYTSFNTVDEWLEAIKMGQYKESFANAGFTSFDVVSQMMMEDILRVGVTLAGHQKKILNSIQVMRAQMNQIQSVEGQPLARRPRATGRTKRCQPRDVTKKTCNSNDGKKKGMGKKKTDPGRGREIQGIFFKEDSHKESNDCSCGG
procedure.summary: phosphorylation enrichment, bacterial display (enrichment ratio); higher = better substrate or ligand; peptides without Tyr show the background
Note to self: values exactly at 0.6 are Satisfied. So phosphorylation enrichment at or above 0.6 is Satisfied, below is Not satisfied.

ETALHYIHDGI [GATD3A_Y250]: Not satisfied

q: Kindly determine if phosphorylation enrichment recorded for EGTATYAAAIL [JUP_Y644_V648I] is above or exactly 0.6.
a: Satisfied

q: Kindly determine if phosphorylation enrichment recorded for SVGGLYRDMGA [CBX8_Y321_G317V] is above or exactly 0.6.
a: Not satisfied

q: Kindly determine if phosphorylation enrichment recorded for ILGLEYSLRVP [HELZ2_Y1304] is above or exactly 0.6.
a: Satisfied

q: Kindly determine if phosphorylation enrichment recorded for VRFMANTDETF [F8_Y450_Y450N] is above or exactly 0.6.
a: Not satisfied

q: Kindly determine if phosphorylation enrichment recorded for KALKQYRASPS [DDX27_Y763_G766S] is above or exactly 0.6.
a: Not satisfied

q: Kindly determine if phosphorylation enrichment recorded for RAILNYIASKY [GSTA3_Y74] is above or exactly 0.6.
a: Satisfied

###

target.or.test.system: Hck (UniProt P08631)
Sequence (P08631 whole entry, looked up): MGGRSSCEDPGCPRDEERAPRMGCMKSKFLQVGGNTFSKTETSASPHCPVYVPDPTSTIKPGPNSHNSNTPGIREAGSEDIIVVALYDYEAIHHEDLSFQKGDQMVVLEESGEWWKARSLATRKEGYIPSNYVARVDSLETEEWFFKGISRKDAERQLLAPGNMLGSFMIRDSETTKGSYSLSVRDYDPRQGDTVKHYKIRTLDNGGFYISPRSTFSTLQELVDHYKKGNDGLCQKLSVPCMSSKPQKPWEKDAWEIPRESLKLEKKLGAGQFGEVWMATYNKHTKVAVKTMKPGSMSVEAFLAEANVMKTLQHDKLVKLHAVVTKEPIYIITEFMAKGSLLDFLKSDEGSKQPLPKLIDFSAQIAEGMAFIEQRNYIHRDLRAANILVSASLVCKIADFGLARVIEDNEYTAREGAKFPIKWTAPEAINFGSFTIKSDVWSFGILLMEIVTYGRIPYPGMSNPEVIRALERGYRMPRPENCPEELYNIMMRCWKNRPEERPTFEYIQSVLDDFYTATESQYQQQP
procedure.summary: phosphorylation enrichment, bacterial display (enrichment ratio); higher = better substrate or ligand; peptides without Tyr show the background
Note to self: values exactly at 0.6 are YES. So phosphorylation enrichment at or above 0.6 is YES, below is NO.

q: Kindly determine if phosphorylation enrichment recorded for DKGTLYIVEQI [PLBD1_Y375] is above or exactly 0.6.
a: NO

q: Kindly determine if phosphorylation enrichment recorded for RAVLLYEYVGK [NATD1_Y45] is above or exactly 0.6.
a: YES

q: Kindly determine if phosphorylation enrichment recorded for SENAFYLSPHI [COL6A3_Y2827_D2831H] is above or exactly 0.6.
a: YES

q: Kindly determine if phosphorylation enrichment recorded for STTSDYQWDFS [MTDH_Y364_V368F] is above or exactly 0.6.
a: NO

q: Kindly determine if phosphorylation enrichment recorded for LLKKVYLMLDN [STAT1_Y203_M202V] is above or exactly 0.6.
a: YES

q: Kindly determine if phosphorylation enrichment recorded for EEAAGCAQESQ [CAMKV_Y491_Y491C] is above or exactly 0.6.
a: NO

q: Kindly determine if phosphorylation enrichment recorded for IFGVSYDEFRF [CFTR_Y512_YF] is above or exactly 0.6.
a: YES

q: Kindly determine if phosphorylation enrichment recorded for LAVGDYMRRQK [ATM_Y1915_V1913G] is above or exactly 0.6.
a: NO

q: Kindly determine if phosphorylation enrichment recorded for EEHIPYTHMNG [INSR_Y1361] is above or exactly 0.6.
a: NO

q: Kindly determine if phosphorylation enrichment recorded for DFKIIYIVPMR [SNRNP200_Y540_A542V] is above or exactly 0.6.
a: NO

q: Kindly determine if phosphorylation enrichment recorded for EGTATYAAAIL [JUP_Y644_V648I] is above or exactly 0.6.
a: YES

q: Kindly determine if phosphorylation enrichment recorded for RAEAPYLLVSN [LRIG1_Y1054_Q1053P] is above or exactly 0.6.
a: NO

q: Kindly determine if phosphorylation enrichment recorded for QRTMKYTTATG [MCCC1_Y41] is above or exactly 0.6.
a: NO

q: Kindly determine if phosphorylation enrichment recorded for AKLKDYFIFNK [CCDC42_Y149_YF] is above or exactly 0.6.
a: NO

###

target.or.test.system: Fes (UniProt P07332)
Sequence (P07332 whole entry, looked up): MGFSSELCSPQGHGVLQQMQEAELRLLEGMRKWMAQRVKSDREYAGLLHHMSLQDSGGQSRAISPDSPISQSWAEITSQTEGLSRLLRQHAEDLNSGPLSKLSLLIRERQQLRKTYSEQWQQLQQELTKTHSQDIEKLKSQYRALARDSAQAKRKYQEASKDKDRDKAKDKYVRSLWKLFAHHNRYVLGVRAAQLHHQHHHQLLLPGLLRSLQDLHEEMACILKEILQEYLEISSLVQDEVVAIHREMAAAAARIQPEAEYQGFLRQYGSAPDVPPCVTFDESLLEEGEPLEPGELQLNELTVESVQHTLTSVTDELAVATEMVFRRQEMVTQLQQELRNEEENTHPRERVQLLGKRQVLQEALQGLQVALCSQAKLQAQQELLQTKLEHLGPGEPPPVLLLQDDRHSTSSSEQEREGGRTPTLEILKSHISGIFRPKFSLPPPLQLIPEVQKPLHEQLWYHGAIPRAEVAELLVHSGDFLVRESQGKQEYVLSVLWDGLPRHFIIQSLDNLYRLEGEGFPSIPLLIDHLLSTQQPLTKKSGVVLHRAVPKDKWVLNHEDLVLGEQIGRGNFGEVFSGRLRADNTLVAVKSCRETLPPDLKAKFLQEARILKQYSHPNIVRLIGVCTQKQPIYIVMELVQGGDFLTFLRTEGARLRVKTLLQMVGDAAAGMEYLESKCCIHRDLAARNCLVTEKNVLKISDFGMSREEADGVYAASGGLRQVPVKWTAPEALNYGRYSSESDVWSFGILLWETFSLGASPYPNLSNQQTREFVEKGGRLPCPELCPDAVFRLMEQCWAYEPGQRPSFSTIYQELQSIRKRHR
procedure.summary: phosphorylation enrichment, bacterial display (enrichment ratio); higher = better substrate or ligand; peptides without Tyr show the background
List of phosphorylation enrichment values.

Worked cases, phosphorylation enrichment given:
MKGDYYCYLAE [YWHAG_Y131_R132C]: 1.5
NDPMEYAKQHG [ASS1_Y163_L160P]: 0.876
IENKPYGMSDP [RET_Y1062_L1061P]: 0.861

// next entry
q: Consider the sequence DSMQSYDLDFP [UNC13B_Y243_YF] and give its measured phosphorylation enrichment.
a: 1.02

###

target.or.test.system: Fes (UniProt P07332)
procedure.summary: phosphorylation enrichment, bacterial display (enrichment ratio); higher = better substrate or ligand; peptides without Tyr show the background
Note to self: values exactly at 1 are TRUE. So phosphorylation enrichment at or above 1 is TRUE, below is FALSE.

Sample answers from the record:
HHLSTYTKMLF [CHST8_Y251_R247H]: TRUE
KKEGPYDVVVL [PARK7_Y67]: FALSE
MKGDFYCFLAE [YWHAG_Y131_R132C_YF]: TRUE
AIQDAYMHITS [ADCY10_Y318]: FALSE
IKGNMYFENSF [EGFR_Y112_R108K_YF]: FALSE

Kindly consider the entry below.
q: Kindly determine if phosphorylation enrichment recorded for PSAELYSFALP [PDGFRB_Y716_N718Y_YF] is above or exactly 1.
a: TRUE

###

target.or.test.system: FGFR3 (UniProt P22607)
Sequence (P22607 whole entry, looked up): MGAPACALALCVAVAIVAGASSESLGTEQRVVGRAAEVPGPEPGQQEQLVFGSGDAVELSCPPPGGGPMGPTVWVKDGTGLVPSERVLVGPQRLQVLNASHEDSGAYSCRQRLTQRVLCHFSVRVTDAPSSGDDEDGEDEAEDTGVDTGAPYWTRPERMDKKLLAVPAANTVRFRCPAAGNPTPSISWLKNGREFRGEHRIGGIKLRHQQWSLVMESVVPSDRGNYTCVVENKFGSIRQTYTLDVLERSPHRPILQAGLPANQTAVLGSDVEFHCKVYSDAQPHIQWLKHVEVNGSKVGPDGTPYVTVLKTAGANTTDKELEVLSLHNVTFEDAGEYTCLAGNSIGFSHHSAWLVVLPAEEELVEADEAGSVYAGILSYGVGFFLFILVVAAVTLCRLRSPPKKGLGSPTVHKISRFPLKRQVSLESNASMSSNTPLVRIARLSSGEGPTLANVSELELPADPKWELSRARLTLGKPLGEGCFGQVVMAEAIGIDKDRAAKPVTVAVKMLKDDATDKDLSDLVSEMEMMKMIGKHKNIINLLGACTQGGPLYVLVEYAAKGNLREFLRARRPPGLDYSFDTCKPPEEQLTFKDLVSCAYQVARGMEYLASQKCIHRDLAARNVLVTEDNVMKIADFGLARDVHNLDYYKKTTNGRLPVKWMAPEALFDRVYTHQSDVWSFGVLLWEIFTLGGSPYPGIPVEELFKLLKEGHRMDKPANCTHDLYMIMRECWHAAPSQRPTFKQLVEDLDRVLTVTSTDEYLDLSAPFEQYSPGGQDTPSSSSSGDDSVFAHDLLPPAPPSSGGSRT
procedure.summary: phosphorylation enrichment, bacterial display (enrichment ratio); higher = better substrate or ligand; peptides without Tyr show the background
property: phosphorylation enrichment

IGMIIYFARKA [VCAM1_Y718]: 0.72
VVDVTYDDVPI [FLNB_Y1308_E1305D]: 0.697
GGFSRYDEGSG [RECQL5_Y484_D480G]: 0.659
KLKPIYFHTQG [AR_Y916_V912L]: 0.525
YLGEEYVKAVG [TF_Y674]: 0.523
QCTSDYPEHVC [SART3_Y541]: 0.969

q: Consider the sequence KSAAIYNPVIY [RHO_Y301] and give its measured phosphorylation enrichment.
a: 1.25

q: Consider the sequence DAICYYRMENA [NPHS2_Y195] and give its measured phosphorylation enrichment.
a: 6.5

q: Consider the sequence ECKASYPGKIT [PRSS3_Y232] and give its measured phosphorylation enrichment.
a: 0.418

q: Consider the sequence AIQDAYMHITS [ADCY10_Y318] and give its measured phosphorylation enrichment.
a: 0.523

q: Consider the sequence TLARLYHPDST [LRIG1_Y1029] and give its measured phosphorylation enrichment.
a: 0.429

q: Consider the sequence ECKETYHEGEC [PRKN_Y372_A371T] and give its measured phosphorylation enrichment.
a: 0.808

q: Consider the sequence FPRAWCRRSIA [KIAA1109_Y4272_Y4272C] and give its measured phosphorylation enrichment.
a: 0.441

q: Consider the sequence WKGSWYSMRKM [FGB_Y475] and give its measured phosphorylation enrichment.
a: 0.716

q: Consider the sequence RKLVDYDSAQH [BIN1_Y150_R154Q] and give its measured phosphorylation enrichment.
a: 1.28

###

System: Fer (mouse)
procedure.summary: phosphorylation enrichment, bacterial display (enrichment ratio); higher = better substrate or ligand; peptides without Tyr show the background
property: phosphorylation enrichment

REGAKYVSHCA [ASS1_Y113_G117C]: 0.633
SSAETYSRMRL [NBEAL2_Y1835]: 0.54
SSTAMYSAAGR [PSMB1_Y8_P11A]: 0.442
RYFTTYDTNGR [CLCA1_Y665]: 0.471

q: Consider the sequence PLDGEYFTPQI [TP53_Y327_L330P] and give its measured phosphorylation enrichment.
a: 0.482

q: Consider the sequence NHRNQYQALKP [CLSPN_Y887] and give its measured phosphorylation enrichment.
a: 0.356

###

List of SH2 binding enrichment values.
target.or.test.system: c-Src SH2;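 also: peptide library displayed on the E. coli surface as eCPX fusions, selected cells deep-sequenced, score is each peptide's frequency after selection divided by its frequency in the input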
procedure.summary: SH2 binding enrichment of the phosphorylated peptide, bacterial display (enrichment ratio); higher = better substrate or ligand; peptides without Tyr show the background
Lab note: jot down the number only; don't add units.

KAEELYIGVTV [EFHC2_Y509]: 0.411
EDSEFYRAFEE [CASQ2_Y179_K180R_YF]: 0.751
ILDEAYVMASM [EGFR_Y764_V769M]: 0.424
KDDEKYLDVIR [MTM1_Y260]: 0.515
ISIFYYAKGQP [MPZ_Y82_H81Y]: 0.409

q: Consider the sequence FARNCYVAGQF [G6PD_Y107_S106C_YF] and give its measured SH2 binding enrichment.
a: 0.437

q: Consider the sequence AAALAYGLDKS [HSPA9_Y230] and give its measured SH2 binding enrichment.
a: 0.423

q: Consider the sequence GTYVIYVRFSG [FLNB_Y1687_G1691S] and give its measured SH2 binding enrichment.
a: 0.587

q: Consider the sequence NIRKKYFRAIL [CHD7_Y1217_Q1214R_YF] and give its measured SH2 binding enrichment.
a: 0.356

###

Test system: Fer (mouse)
procedure.summary: phosphorylation enrichment, bacterial display (enrichment ratio); higher = better substrate or ligand; peptides without Tyr show the background
Note to self: values exactly at 0.6 are 1. So phosphorylation enrichment at or above 0.6 is 1, below is 0.

CGSLLYGLVHQ [PRKCG_Y122]: 1
IGLHAYGDQFR [IDH1_Y135_R132L_YF]: 0
AEFGLYAAMVR [VSX2_Y222_G223A_YF]: 1
CDKEFYSVHNK [MET_Y1235_Y1230C_YF]: 0
INVTIYGKTFR [EFHC1_Y177_I174V]: 1
KDDEKYLDVIR [MTM1_Y260]: 0
NTGVYYDLYGG [PTPN11_Y63_D61V]: 1
AYRRGYFDEEM [PLEC_Y2971]: 0
TFAVSYLPDMS [FLNC_Y1602_T1599A_YF]: 0
EEHIPYTHMNG [INSR_Y1361]: 0

q: Kindly determine if phosphorylation enrichment recorded for GSERDYTFEEL [EIF2S2_Y174_YF] is above or exactly 0.6.
a: 0

q: Kindly determine if phosphorylation enrichment recorded for SSREGYVSHHN [FAM83B_Y433] is above or exactly 0.6.
a: 0

q: Kindly determine if phosphorylation enrichment recorded for STKPQYQPGEN [SRC_Y530_E527K] is above or exactly 0.6.
a: 0

q: Kindly determine if phosphorylation enrichment recorded for TSPKSCPSQKH [CAP2_Y316_Y316C] is above or exactly 0.6.
a: 0

q: Kindly determine if phosphorylation enrichment recorded for DSMQSYDLDYP [UNC13B_Y243] is above or exactly 0.6.
a: 0

q: Kindly determine if phosphorylation enrichment recorded for ETGEPYRLSPE [EIF4G1_Y311] is above or exactly 0.6.
a: 1

q: Kindly determine if phosphorylation enrichment recorded for ILDEAYVMASM [EGFR_Y764_V769M] is above or exactly 0.6.
a: 0

q: Kindly determine if phosphorylation enrichment recorded for KNSSIYVVANI [VNN1_Y134_N131S] is above or exactly 0.6.
a: 1
